System: HCI01 (cells of a triple-negative basal-like breast cancer xenograft)
experimental_protocol: cell viability of combination (% of vehicle); higher = less cytotoxic
condition_label: 1 µM; 72 h; partner dose: 10 nM

{"compound": "Cl.Cl.Fc1ccc(C(c2ccc(F)cc2)N2CCN(CC=Cc3ccccc3)CC2)cc1 [Flunarizine 2HCl] + CC(C)C[C@H](NC(=O)[C@H](CCc1ccccc1)NC(=O)CN1CCOCC1)C(=O)N[C@@H](Cc1ccccc1)C(=O)N[C@@H](CC(C)C)C(=O)[C@@]1(C)CO1 [Carfilzomib]", "test_system": "HCI01", "cell viability of combination": 103}
{"compound": "COC(=O)C12CCC(C)(C)CC1C1C(=O)C=C3C4(C)C=C(C#N)C(=O)C(C)(C)C4CCC3(C)C1(C)CC2 (configuration not stated) [Bardoxolone methyl] + CC(C)C[C@H](NC(=O)[C@H](CCc1ccccc1)NC(=O)CN1CCOCC1)C(=O)N[C@@H](Cc1ccccc1)C(=O)N[C@@H](CC(C)C)C(=O)[C@@]1(C)CO1 [Carfilzomib]", "test_system": "HCI01", "cell viability of combination": 158}

* * *

Test system: WHIM2 (cells of a triple-negative basal-like breast cancer xenograft)
experimental_protocol: cell viability (% of vehicle); higher = less cytotoxic
condition_label: 10 µM; 72 h
In plain terms, low cell viability, meaning strictly below 80, gives YES, and everything else gives NO.

{"molecule": "CN(C)C(=O)COC(=O)Cc1ccc(OC(=O)c2ccc(N=C(N)N)cc2)cc1.CS(=O)(=O)O [Camostat Mesilate]", "class_assignment": "NO"}
{"molecule": "CCN(CC)C(=O)C1(c2ccccc2)CC1CN.Cl (centres undefined) [Milnacipran HCl]", "class_assignment": "NO"}
{"molecule": "Nc1cc(C(Cl)=C(Cl)Cl)c(S(N)(=O)=O)cc1S(N)(=O)=O [Clorsulon]", "class_assignment": "NO"}
{"molecule": "COc1c2ccoc2cc2oc(=O)ccc12 [5-Methoxypsoralen]", "class_assignment": "NO"}
{"molecule": "CN(C)CCCN1c2ccccc2Sc2ccc(Cl)cc21.Cl [Chlorpromazine HCl]", "class_assignment": "YES"}
{"molecule": "Nc1ccn(C2OC(CO)C(O)C2O)c(=O)n1 (centres undefined) [Cytidine]", "class_assignment": "NO"}
{"molecule": "CC(CN1CC(=O)NC(=O)C1)N1CC(=O)NC(=O)C1.Cl (centres undefined) [Dexrazoxane HCl (ICRF-187, ADR-529)]", "class_assignment": "YES"}
{"molecule": "CCC1OC(=O)CC(O)C(C)C(OC2OC(C)C(O)C(N(C)C)C2O)C(CCN2CC(C)CC(C)C2)CC(C)C(=O)C=CC(C)=CC1COC1OC(C)C(O)C(OC)C1OC (centres undefined) [Tilmicosin]", "class_assignment": "NO"}
{"molecule": "Clc1ccc(C(Cn2ccnc2)OCc2csc3c(Cl)cccc23)c(Cl)c1.O=[N+]([O-])O (centres undefined) [Sertaconazole nitrate]", "class_assignment": "NO"}
{"molecule": "Cc1nc(NC(=O)N2CCCC2C(N)=O)sc1-c1ccnc(C(C)(C)C(F)(F)F)c1 (centres undefined)", "class_assignment": "YES"}
{"molecule": "COc1ccc2c(O[C@H]3CC4C(=O)N(C)CCCC/C=C\\[C@H]5C[C@@]5(C(=O)NS(=O)(=O)C5CC5)NC(=O)[C@@H]4C3)cc(-c3nc(C(C)C)cs3)nc2c1C (some centres undefined) [Simeprevir]", "class_assignment": "YES"}
{"molecule": "CO/C(O)=N/[C@H](C(=O)N1CC2(CC2)C[C@H]1c1ncc(-c2ccc3c(c2)C(F)(F)c2cc(-c4ccc5nc([C@@H]6[C@H]7CC[C@H](C7)N6C(=O)[C@@H](/N=C(\\O)OC)C(C)C)[nH]c5c4)ccc2-3)[nH]1)C(C)C [Ledipasvir]", "class_assignment": "YES"}
{"molecule": "S=P(N1CC1)(N1CC1)N1CC1", "class_assignment": "NO"}
{"molecule": "CCOC(=O)C(CCc1ccccc1)NC(C)C(=O)N1C(C(=O)O)CC2CCCC21 (centres undefined) [Ramipril]", "class_assignment": "NO"}

* * *

Test system: HCI01
experimental_protocol: cell viability of combination (% of vehicle); higher = less cytotoxic
condition_label: 1 µM; 72 h; partner dose: 10 nM
Could you mark each record criterion met if its cell viability of combination falls strictly under 80, and criterion not met if it equals or exceeds it?

{"compound": "Clc1ccc(C(Cn2ccnc2)OCc2c(Cl)cccc2Cl)c(Cl)c1.O=[N+]([O-])O (stereo not drawn) [Isoconazole nitrate] + CC(C)C[C@H](NC(=O)[C@H](CCc1ccccc1)NC(=O)CN1CCOCC1)C(=O)N[C@@H](Cc1ccccc1)C(=O)N[C@@H](CC(C)C)C(=O)[C@@]1(C)CO1", "class_assignment": "criterion not met"}
{"compound": "CCCCc1oc2ccccc2c1C(=O)c1cc(I)c(OCCN(CC)CC)c(I)c1.Cl [Amiodarone HCl] + CC(C)C[C@H](NC(=O)[C@H](CCc1ccccc1)NC(=O)CN1CCOCC1)C(=O)N[C@@H](Cc1ccccc1)C(=O)N[C@@H](CC(C)C)C(=O)[C@@]1(C)CO1", "class_assignment": "criterion not met"}
{"compound": "O=C(NC1CCN(CCCCC2(C(=O)NCC(F)(F)F)c3ccccc3-c3ccccc32)CC1)c1ccccc1-c1ccc(C(F)(F)F)cc1 [Lomitapide] + CC(C)C[C@H](NC(=O)[C@H](CCc1ccccc1)NC(=O)CN1CCOCC1)C(=O)N[C@@H](Cc1ccccc1)C(=O)N[C@@H](CC(C)C)C(=O)[C@@]1(C)CO1", "class_assignment": "criterion not met"}
{"compound": "O=C(O)c1cc(O)c(O)c(O)c1 [Gallic acid] + CC(C)C[C@H](NC(=O)[C@H](CCc1ccccc1)NC(=O)CN1CCOCC1)C(=O)N[C@@H](Cc1ccccc1)C(=O)N[C@@H](CC(C)C)C(=O)[C@@]1(C)CO1", "class_assignment": "criterion met"}
{"compound": "CN(C(=O)CN(CCO)CC(=O)N(C)C(C)(C)Cc1ccccc1)C(C)(C)Cc1ccccc1 [Oxethazaine] + CC(C)C[C@H](NC(=O)[C@H](CCc1ccccc1)NC(=O)CN1CCOCC1)C(=O)N[C@@H](Cc1ccccc1)C(=O)N[C@@H](CC(C)C)C(=O)[C@@]1(C)CO1", "class_assignment": "criterion met"}
{"compound": "CCCCc1oc2ccc(NS(C)(=O)=O)cc2c1C(=O)c1ccc(OCCCN(CCCC)CCCC)cc1.Cl [Dronedarone HCl] + CC(C)C[C@H](NC(=O)[C@H](CCc1ccccc1)NC(=O)CN1CCOCC1)C(=O)N[C@@H](Cc1ccccc1)C(=O)N[C@@H](CC(C)C)C(=O)[C@@]1(C)CO1", "class_assignment": "criterion not met"}
{"compound": "CNCCCC12CCC(c3ccccc31)c1ccccc12.Cl [Maprotiline HCl] + CC(C)C[C@H](NC(=O)[C@H](CCc1ccccc1)NC(=O)CN1CCOCC1)C(=O)N[C@@H](Cc1ccccc1)C(=O)N[C@@H](CC(C)C)C(=O)[C@@]1(C)CO1", "class_assignment": "criterion met"}
{"compound": "CCCCCCCCCCCC1=C(O)C(=O)C=C(O)C1=O [Embelin] + CC(C)C[C@H](NC(=O)[C@H](CCc1ccccc1)NC(=O)CN1CCOCC1)C(=O)N[C@@H](Cc1ccccc1)C(=O)N[C@@H](CC(C)C)C(=O)[C@@]1(C)CO1", "class_assignment": "criterion met"}
{"compound": "CC(C)(C)c1ccc(C(=O)CCCN2CCC(OC(c3ccccc3)c3ccccc3)CC2)cc1 [Ebastine] + CC(C)C[C@H](NC(=O)[C@H](CCc1ccccc1)NC(=O)CN1CCOCC1)C(=O)N[C@@H](Cc1ccccc1)C(=O)N[C@@H](CC(C)C)C(=O)[C@@]1(C)CO1", "class_assignment": "criterion met"}
{"compound": "COc1cc2ncnc(Nc3ccc(F)c(Cl)c3)c2cc1NC(=O)C=CCN1CCCCC1 + CC(C)C[C@H](NC(=O)[C@H](CCc1ccccc1)NC(=O)CN1CCOCC1)C(=O)N[C@@H](Cc1ccccc1)C(=O)N[C@@H](CC(C)C)C(=O)[C@@]1(C)CO1", "class_assignment": "criterion met"}
{"compound": "CC(C)C[C@H](NC(=O)[C@H](Cc1ccccc1)NC(=O)c1cnccn1)B(O)O [Bortezomib] + CC(C)C[C@H](NC(=O)[C@H](CCc1ccccc1)NC(=O)CN1CCOCC1)C(=O)N[C@@H](Cc1ccccc1)C(=O)N[C@@H](CC(C)C)C(=O)[C@@]1(C)CO1", "class_assignment": "criterion met"}
{"compound": "CCOC(=O)C1=C(COCCN)NC(C)=C(C(=O)OC)C1c1ccccc1Cl (stereo not drawn) [Amlodipine] + CC(C)C[C@H](NC(=O)[C@H](CCc1ccccc1)NC(=O)CN1CCOCC1)C(=O)N[C@@H](Cc1ccccc1)C(=O)N[C@@H](CC(C)C)C(=O)[C@@]1(C)CO1", "class_assignment": "criterion not met"}

* * *

Tested on: UCD52 (cells of a triple-negative basal-like breast cancer xenograft)
experimental_protocol: cell viability (% of vehicle); higher = less cytotoxic
condition_label: 10 µM; 72 h
Label T when cell viability < 80; otherwise F.

{"compound": "N.N.O=C([O-])C1(C(=O)[O-])CCC1.[Pt+2] [Carboplatin]", "class_assignment": "T"}
{"compound": "CC(=O)C1(O)Cc2c(O)c3c(c(O)c2C(OC2CC(N)C(O)C(C)O2)C1)C(=O)c1ccccc1C3=O.Cl (stereo not drawn) [Idarubicin HCl]", "class_assignment": "T"}
{"compound": "Cc1cc(C#N)cc(C)c1Oc1nc(Nc2ccc(C#N)cc2)nc(N)c1Br [Etravirine (TMC125)]", "class_assignment": "F"}
{"compound": "COCCc1ccc(OCC(O)CNC(C)C)cc1.COCCc1ccc(OCC(O)CNC(C)C)cc1.O=C(O)C(O)C(O)C(=O)O (stereo not drawn) [Metoprolol Tartrate]", "class_assignment": "F"}
{"compound": "COc1ccc(CN2CCN(C(c3ccc(F)cc3)c3ccc(F)cc3)CC2)c(OC)c1OC.Cl.Cl [Lomerizine HCl]", "class_assignment": "T"}
{"compound": "C/C=C/C1=C(C(=O)O)N2C(=O)[C@@H](NC(=O)[C@H](N)c3ccc(O)cc3)[C@@H]2SC1 [Cefprozil]", "class_assignment": "F"}
{"compound": "CN1CCN(C2=Nc3ccccc3Oc3ccc(Cl)cc32)CC1.O=C(O)CCC(=O)O [Loxapine Succinate]", "class_assignment": "F"}
{"compound": "COC(=O)NC(C(=O)N1CCCC1c1ncc(-c2ccc(-c3ccc(-c4cnc(C5CCCN5C(=O)C(NC(=O)OC)C(C)C)[nH]4)cc3)cc2)[nH]1)C(C)C (stereo not drawn)", "class_assignment": "T"}
{"compound": "COC(=O)C1=C(C#N)NC(C)=C(C(=O)OC(C)C)C1c1cccc([N+](=O)[O-])c1 (stereo not drawn) [Nilvadipine]", "class_assignment": "T"}
{"compound": "CCCc1nn(C)c2c(=O)nc(-c3cc(S(=O)(=O)N4CCN(C)CC4)ccc3OCC)[nH]c12.O=C(O)CC(O)(CC(=O)O)C(=O)O [Sildenafil Citrate]", "class_assignment": "F"}
{"compound": "CC(=O)OC1(C(C)=O)CCC2C3C=C(Cl)C4=CC(=O)C5CC5C4(C)C3CCC21C (stereo not drawn) [Cyproterone Acetate]", "class_assignment": "F"}
